Target: T1, huMICA*002 alpha 3-his (human)
T1 construct: whole construct entry: GS, alpha 3 domain, GNS, His8; also called MICA002.His; MICA*002 alpha3 construct
T1 chain: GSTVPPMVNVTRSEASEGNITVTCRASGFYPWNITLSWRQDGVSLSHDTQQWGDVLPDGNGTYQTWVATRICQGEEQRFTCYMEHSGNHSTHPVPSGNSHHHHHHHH
Test: SPR, Biacore 8K, antibody on Protein A chip
Test readout: Kd (nM)
# value in nM; strip the unit string

Binder | Readout unit | Kd
1D5v19 (antibody, IgG1, V domains shown, humanized variant of 1D5) VH: EVQLVQSGAEVKKPGASVKVSCKASGYAFTSQNIYWVRQAPGQGLEWIGYIEPYNVVPMYNPKFKGRATLTVDKSTSTAYLELSSLRSEDTAVYYCARSGSSNFDYWGQGTLVTVSS VL: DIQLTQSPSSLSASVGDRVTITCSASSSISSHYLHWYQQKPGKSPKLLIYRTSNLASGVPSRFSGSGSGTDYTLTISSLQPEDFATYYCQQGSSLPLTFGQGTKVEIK | nM | 1.16

Consider now this further binder.
Request: Which Kd is listed for 1D5v23 (antibody, IgG1, V domains shown, humanized variant of 1D5) VH: EIQLVQSGAEVKKPGASVKVSCKASGYAFTSQNIYWVRQAPGQGLEWIGYIEPYNVVPMYNPKFKGRATLTVDTSTSTAYLELSSLRSEDTAVYYCARSGSSNFDYWGQGTLVTVSS VL: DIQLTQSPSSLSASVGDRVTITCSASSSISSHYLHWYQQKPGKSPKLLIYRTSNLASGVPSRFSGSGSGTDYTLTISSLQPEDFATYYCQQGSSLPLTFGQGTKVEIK ?
Response: 1.11
